self-cleavage by entry:
B1: Hairpin Ribozyme (parent)
chain: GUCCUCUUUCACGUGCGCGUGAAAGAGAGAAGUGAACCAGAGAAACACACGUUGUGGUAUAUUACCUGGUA

# Variants of: B1
# PROTOCOL TEXT: self-cleavage, relative activity (ratio to wild type); higher = more cleavage; co-transcriptional
Number, no unit, nothing else.

Below, 6 variants whose answers are already recorded.
C38A G68C    0.137
U2G G68U    0.2
U33C C46U    0.0782
A28C A59C    0
G29A U52C    0.156
G17U G56U    0.112

I have this variant here, A49G A64U , and I need its recorded self-cleavage.
0.0802

Same for U8A U63A
0.111

Same for U55A G68U
0.17

Same for C4A A41G
0.13

Same for U5A A30G
0.119
